src = paper PMC10878397

# Study Target: HDAC3 (Homo sapiens)
# Sequence (O15379 whole entry): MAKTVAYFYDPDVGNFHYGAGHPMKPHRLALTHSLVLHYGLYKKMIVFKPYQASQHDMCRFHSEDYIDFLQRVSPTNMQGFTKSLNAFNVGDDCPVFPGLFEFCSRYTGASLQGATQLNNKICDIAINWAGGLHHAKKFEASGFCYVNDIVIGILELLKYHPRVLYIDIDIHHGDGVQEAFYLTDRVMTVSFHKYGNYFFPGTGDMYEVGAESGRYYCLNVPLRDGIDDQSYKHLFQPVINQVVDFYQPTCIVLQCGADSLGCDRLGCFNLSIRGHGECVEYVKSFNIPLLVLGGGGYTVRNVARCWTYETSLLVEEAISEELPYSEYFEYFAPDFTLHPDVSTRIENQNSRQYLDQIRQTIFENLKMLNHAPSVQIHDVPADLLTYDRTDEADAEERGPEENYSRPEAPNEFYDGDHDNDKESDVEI
# Assay Name: NanoBRET target engagement assay (HEK293T)
# Run Conditions: intact cells
The compounds listed here are annotated with their EC50.
The response must be a number in µM with no trailing unit.

Look over these answered cases.
Cn1cc(-c2ccc(C(=O)Nc3ccccc3N)cc2)c2cc[nH]c2c1=O [NB462] | 32
Cn1cc(-c2ccc(C(=O)Nc3cc(-c4cccs4)ccc3N)nc2)c2cc[nH]c2c1=O [NB514] | 11.4
Cn1cc(-c2ccc(C(=O)Nc3cc(-c4ccccc4)ccc3N)cc2)c2cc[nH]c2c1=O [NB503] | 6.5

Q: Under HDAC3 (Homo sapiens): EC50 value of Cn1cc(-c2ccc(C(=O)Nc3cc(-c4ccccc4)ccc3N)nc2)c2cc[nH]c2c1=O [NB512] ?
Ans: 13.6
